- System: human cervical cancer HeLa
- Protocol Text: fluorometric cell viability assay (Resazurin) in HeLa
- Condition Label: Homo sapiens, HeLa, 48 h, read-out: IC50 in HeLa
pIC50: −log10 of the molar value.
Measured Property: pIC50

[
  {
    "Compound": "N#Cc1ccc(C(F)(F)F)c(OCC#CCNC(=O)c2ccc(SC(F)(F)F)cc2)c1 [Compound 13]",
    "Target System": "human cervical cancer HeLa",
    "Rel": "=",
    "Endpoint Result": 4.51
  },
  {
    "Compound": "O=C(NCC#CCO)c1ccc(SC(F)(F)F)cc1 [Compound 14]",
    "Target System": "human cervical cancer HeLa",
    "Rel": "<",
    "Endpoint Result": 4.00
  }
]
